test: In vivo microdialysis and plasma pharmacokinetics (BBB penetration); parameters: species or system Sprague-Dawley rats; conditions: male, Sprague-Dawley, rat, plasma, iv, 10 mg/kg, 10 mg/kg i.v., plasma 0-55 min, n=3
observed property: AUC (µM·h)
Give just the number in µM·h; leave the unit off.

// AUC lookup, key: NC(=O)CNC(=O)[C@@H]1CCC(=O)NCCCC[C@@H](NC(=O)[C@@H](N)Cc2ccc(O)cc2)C(=O)N[C@@H](Cc2c[nH]c3ccccc23)C(=O)N[C@@H](Cc2ccccc2)C(=O)N1 1.83

// AUC lookup, key: NC(=O)[C@H](CO[C@@H]1O[C@H](CO)[C@@H](O)[C@H](O)[C@H]1O)NC(=O)[C@@H]1CCC(=O)NCCCC[C@@H](NC(=O)[C@@H](N)Cc2ccc(O)cc2)C(=O)N[C@@H](Cc2c[nH]c3ccccc23)C(=O)N[C@@H](Cc2ccccc2)C(=O)N1 2.62

Origin of measurements: paper PMC11472388
